- system_under_test: T1, human SIRPα variant 1 (human, UniProt P78324 31-504)
- T1 construct: full length ORF on transfected CHO-K1 or HEK293 cells; entry includes the signal peptide; also called hSIRPαV1; SIRPαV1
- procedure_details: CELISA, CHO-K1 transfectants; average of two experiments
recorded_metric: EC50 (nM)
Numeric answer only, unit nM assumed.

Check out these entries, answers already filled in.
{"columns": ["binder", "EC50 [nM]"],
 "data": [
  ["hSIRPα.50A.H1L2 (antibody, human IgG4 S228P, kappa, V domains shown, human IgG4 S228P, kappa; also called hSIRPα.50H1L2) VH: EVQLQQSGAEVVKPGASVKVSCKASGFTFTNYYIHWVRQAPGQGLEWIGWIYPGNVNTKYNEKFKARVTITADKSTSTAYMDLSSLRSEDTAVYYCARPTIIATDFDVWGQGTTVTVSS VL: DIVMTQSPSSLSASVGDRVTITCKASQGVGTAVGWYQQKPGKAPKLLIYWASTRHTGVPDRFSGSGSGTDFTLTISNLQPEDFADYYCQQYSTYPFTFGGGTKVEIKR", 0.781],
  ["hSIRPα.50A.H4L5 (antibody, human IgG4 S228P, kappa, V domains shown, human IgG4 S228P, kappa; also called hSIRPα.50H4L5) VH: EVQLQQSGAELVKPGASVKVSCKASGFTFTNYYIHWVRQRPGQGLEWMGWIYPGNVNTKYNEKFKAKATITADKSTSTAYMELSSLTSEDTAVYYCARPTIIATDFDVWGQGTTVTVSS VL: DIVLTQSPSFLSASVGDRVTITCKASQGVGTAVGWYQQKPGKSPKLLIYWASTRHTGVPDRFSGSGSGTEFTLTISNLQPEDFAAYYCQQYSTYPFTFGGGTKLEIKR", 0.701]
]}

Now for a further binder.
Prompt line: Requested field: EC50. Item: hSIRPα.50A.H1L3 (antibody, human IgG4 S228P, kappa, V domains shown, human IgG4 S228P, kappa; also called hSIRPα.50H1L3) VH: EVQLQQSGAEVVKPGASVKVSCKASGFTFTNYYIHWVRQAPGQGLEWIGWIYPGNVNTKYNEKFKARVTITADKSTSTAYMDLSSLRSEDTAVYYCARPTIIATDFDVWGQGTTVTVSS VL: ELVMTQSPSSLSASVGDRVTITCKASQGVGTAVGWYQQKPGKAPKLLIYWASTRHTGVPDRFSGSGSGTDFTLAISSLQPEDIADYYCQQYSTYPFTFGGGTKVEIKR
Response line: 1.09
